- System: U-251
- assay_remarks: Cytotoxicity against human U251 cells after 48 hrs by SRB assay
- Type: functional, cell-based
- condition_notes: U-251, 48 h
pIC50: −log10 of the molar value.
readout_type: pIC50

[[record]]
molecule = "C=C(C)[C@@H]1CC[C@@]2(C)[C@H]1[C@H]1CC[C@@H]3[C@@]4(C)CC[C@H](OC(=O)/C=C/c5ccc(O)cc5)C(C)(C)[C@@H]4CC[C@@]3(C)[C@]1(C)C[C@@H]2O"
measurement = 4.39

[[record]]
molecule = "COc1cccc2c1C(=O)c1c(O)c3c(c(O)c1C2=O)C[C@@](O)(C(=O)CO)C[C@@H]3O[C@H]1C[C@H](N)[C@H](O)[C@H](C)O1"
measurement = 6.49

[[record]]
molecule = "C=C(C)[C@@H]1CC[C@@]2(C)[C@H]1[C@H]1CCC3[C@@]4(C)CC[C@H](O)C(C)(C)[C@@H]4CC[C@@]3(C)[C@]1(C)C[C@@H]2O (stereo partly drawn)"
measurement = 4.31

